- system.tested: HLA-A*02:01 (Homo sapiens, UniProt P04439, D140Y/D185E/D98H/E176V/E277Q/G131W/G231S/I119V/I121R/I166T/I218V/L300P/L318F/N151K/N90K/P208A/P217A/Q86G/Q94H/R138H/R169H/T345S)
- assay.summary: MHC binding assay (UV-ligand exchange, anti-β2m ELISA, peptide exchange yield)
- measurement.parameters: binding to HLA-A*02:01
measurement.type: Peptide exchange (MHC class I binding score, peptide exchange yield)

Consider the following illustrative entries.
Prompt: Endpoint output: Peptide exchange (MHC class I binding score, peptide exchange yield) of 572 (ALADLIEKELSV; listed as Homo sapiens) [compound 572] . Value?
Completion: “+++” (>50 = +++)

Prompt: Endpoint output: Peptide exchange (MHC class I binding score, peptide exchange yield) of 254 (TLLAFIMEL; listed as Homo sapiens) [compound 254] . Value?
Completion: “+++” (>50 = +++)

Prompt: Endpoint output: Peptide exchange (MHC class I binding score, peptide exchange yield) of 375 (SLTETIEGV; listed as Homo sapiens) [compound 375] . Value?
Completion: “++” (>20% = ++)

Prompt: Endpoint output: Peptide exchange (MHC class I binding score, peptide exchange yield) of 614 (LLLPDQPPYHL; listed as Homo sapiens) [compound 614] . Value?
Completion: “+++” (>50 = +++)

Prompt: Endpoint output: Peptide exchange (MHC class I binding score, peptide exchange yield) of 195 (GLFADLLPRL; listed as Homo sapiens) [compound 195] . Value?
Completion: “+++” (>50 = +++)

Prompt: Endpoint output: Peptide exchange (MHC class I binding score, peptide exchange yield) of 162 (YQQAQVPSV; listed as Homo sapiens) [compound 162] . Value?
Completion: “+++” (>50 = +++)

Prompt: Endpoint output: Peptide exchange (MHC class I binding score, peptide exchange yield) of 578 (FLDPGGPMMKL; listed as Homo sapiens) [compound 578] . Value?
Completion: “+++” (>50 = +++)

Prompt: Endpoint output: Peptide exchange (MHC class I binding score, peptide exchange yield) of 542 (RVWDISTVSSV; listed as Homo sapiens) [compound 542] . Value?
Completion: “+++” (>50 = +++)

***
Prompt: Endpoint output: Peptide exchange (MHC class I binding score, peptide exchange yield) of 18 (YLVAKLVEV; listed as Homo sapiens) [compound 18] . Value?
Completion: “++” (>20% = ++)

Prompt: Endpoint output: Peptide exchange (MHC class I binding score, peptide exchange yield) of 222 (NLIENVQRL; listed as Homo sapiens) [compound 222] . Value?
Completion: “++” (>20% = ++)

---

- system.tested: HLA-A*02:01 (Homo sapiens, UniProt P04439, D140Y/D185E/D98H/E176V/E277Q/G131W/G231S/I119V/I121R/I166T/I218V/L300P/L318F/N151K/N90K/P208A/P217A/Q86G/Q94H/R138H/R169H/T345S)
- assay.summary: MHC binding assay (UV-ligand exchange, anti-β2m ELISA, peptide exchange yield)
- measurement.parameters: binding to HLA-A*02:01
measurement.type: Peptide exchange (MHC class I binding score, peptide exchange yield)

Consider the following illustrative entries.
Prompt: Endpoint output: Peptide exchange (MHC class I binding score, peptide exchange yield) of 479 (SLFGNSGILENV; listed as Homo sapiens) [compound 479] . Value?
Completion: “+++” (>50 = +++)

Prompt: Endpoint output: Peptide exchange (MHC class I binding score, peptide exchange yield) of 193 (QLLDADGFLNV; listed as Homo sapiens) [compound 193] . Value?
Completion: “+++” (>50 = +++)

Prompt: Endpoint output: Peptide exchange (MHC class I binding score, peptide exchange yield) of 384 (ILFANPNIFV; listed as Homo sapiens) [compound 384] . Value?
Completion: “+++” (>50 = +++)

Prompt: Endpoint output: Peptide exchange (MHC class I binding score, peptide exchange yield) of 530 (VMYADIGGMDI; listed as Homo sapiens) [compound 530] . Value?
Completion: “+++” (>50 = +++)

***
Prompt: Endpoint output: Peptide exchange (MHC class I binding score, peptide exchange yield) of 171 (LLLPLQILL; listed as Homo sapiens) [compound 171] . Value?
Completion: “+++” (>50 = +++)

Prompt: Endpoint output: Peptide exchange (MHC class I binding score, peptide exchange yield) of 610 (LLAPTPYIIGV; listed as Homo sapiens) [compound 610] . Value?
Completion: “+++” (>50 = +++)

Prompt: Endpoint output: Peptide exchange (MHC class I binding score, peptide exchange yield) of 132 (LLVEQPPLAGV; listed as Homo sapiens) [compound 132] . Value?
Completion: “+++” (>50 = +++)

Prompt: Endpoint output: Peptide exchange (MHC class I binding score, peptide exchange yield) of 251 (ALYTGFSILV; listed as Homo sapiens) [compound 251] . Value?
Completion: “++” (>20% = ++)

Prompt: Endpoint output: Peptide exchange (MHC class I binding score, peptide exchange yield) of 334 (TLTKVLVAL; listed as Homo sapiens) [compound 334] . Value?
Completion: “+++” (>50 = +++)

---

- system.tested: HLA-A*02:01 (Homo sapiens, UniProt P04439, D140Y/D185E/D98H/E176V/E277Q/G131W/G231S/I119V/I121R/I166T/I218V/L300P/L318F/N151K/N90K/P208A/P217A/Q86G/Q94H/R138H/R169H/T345S)
- assay.summary: MHC binding assay (UV-ligand exchange, anti-β2m ELISA, peptide exchange yield)
- measurement.parameters: binding to HLA-A*02:01
measurement.type: Peptide exchange (MHC class I binding score, peptide exchange yield)

Consider the following illustrative entries.
Prompt: Endpoint output: Peptide exchange (MHC class I binding score, peptide exchange yield) of 339 (GLWEIENNPTVKA; listed as Homo sapiens) [compound 339] . Value?
Completion: “++++” (>75% = ++++)

Prompt: Endpoint output: Peptide exchange (MHC class I binding score, peptide exchange yield) of 552 (GLLDLPFRVGV; listed as Homo sapiens) [compound 552] . Value?
Completion: “+++” (>50 = +++)

Prompt: Endpoint output: Peptide exchange (MHC class I binding score, peptide exchange yield) of 237 (ALLEASGTLLL; listed as Homo sapiens) [compound 237] . Value?
Completion: “++++” (>75% = ++++)

Prompt: Endpoint output: Peptide exchange (MHC class I binding score, peptide exchange yield) of 86 (NLIGKIENV; listed as Homo sapiens) [compound 86] . Value?
Completion: “+++” (>50 = +++)

Prompt: Endpoint output: Peptide exchange (MHC class I binding score, peptide exchange yield) of 272 (ALGNTVPAV; listed as Homo sapiens) [compound 272] . Value?
Completion: “+++” (>50 = +++)

***
Prompt: Endpoint output: Peptide exchange (MHC class I binding score, peptide exchange yield) of 472 (KLLEVSDDPQV; listed as Homo sapiens) [compound 472] . Value?
Completion: “+++” (>50 = +++)

Prompt: Endpoint output: Peptide exchange (MHC class I binding score, peptide exchange yield) of 484 (SLIEKVTQL; listed as Homo sapiens) [compound 484] . Value?
Completion: “+++” (>50 = +++)

Prompt: Endpoint output: Peptide exchange (MHC class I binding score, peptide exchange yield) of 175 (YLFENISQL; listed as Homo sapiens) [compound 175] . Value?
Completion: “+++” (>50 = +++)

Prompt: Endpoint output: Peptide exchange (MHC class I binding score, peptide exchange yield) of 621 (VLMDRLPSLL; listed as Homo sapiens) [compound 621] . Value?
Completion: “++++” (>75% = ++++)

Prompt: Endpoint output: Peptide exchange (MHC class I binding score, peptide exchange yield) of 481 (GLIEDYEALL; listed as Homo sapiens) [compound 481] . Value?
Completion: “+++” (>50 = +++)

Prompt: Endpoint output: Peptide exchange (MHC class I binding score, peptide exchange yield) of 250 (ALSEEGLLVYL; listed as Homo sapiens) [compound 250] . Value?
Completion: “+++” (>50 = +++)

Prompt: Endpoint output: Peptide exchange (MHC class I binding score, peptide exchange yield) of 369 (GLFPEHLIDV; listed as Homo sapiens) [compound 369] . Value?
Completion: “+++” (>50 = +++)

Prompt: Endpoint output: Peptide exchange (MHC class I binding score, peptide exchange yield) of 361 (ALYELEGTTV; listed as Homo sapiens) [compound 361] . Value?
Completion: “+++” (>50 = +++)

---

- system.tested: HLA-A*02:01 (Homo sapiens, UniProt P04439, D140Y/D185E/D98H/E176V/E277Q/G131W/G231S/I119V/I121R/I166T/I218V/L300P/L318F/N151K/N90K/P208A/P217A/Q86G/Q94H/R138H/R169H/T345S)
- assay.summary: MHC binding assay (UV-ligand exchange, anti-β2m ELISA, peptide exchange yield)
- measurement.parameters: binding to HLA-A*02:01
- Source text: Candidate peptides for T cell based therapies according to the present invention were further tested for their MHC binding capacity (affinity). The individual peptide-MHC complexes were produced by UV-ligand exchange, where a UV-sensitive peptide is cleaved upon UV-irradiation, and exchanged with the peptide of interest as analyzed. Only peptide candidates that can effectively bind and stabilize the peptide-receptive MHC molecules prevent dissociation of the MHC complexes. […]
measurement.type: Peptide exchange (MHC class I binding score, peptide exchange yield)

Consider the following illustrative entries.
Prompt: Endpoint output: Peptide exchange (MHC class I binding score, peptide exchange yield) of 298 (VMITKLVEV; listed as Homo sapiens) [compound 298] . Value?
Completion: “+++” (>50 = +++)

Prompt: Endpoint output: Peptide exchange (MHC class I binding score, peptide exchange yield) of 591 (SMAELDIKL; listed as Homo sapiens) [compound 591] . Value?
Completion: “+++” (>50 = +++)

Prompt: Endpoint output: Peptide exchange (MHC class I binding score, peptide exchange yield) of 194 (ALPLFVITV; listed as Homo sapiens) [compound 194] . Value?
Completion: “+++” (>50 = +++)

Prompt: Endpoint output: Peptide exchange (MHC class I binding score, peptide exchange yield) of 450 (FMIDASVHPTL; listed as Homo sapiens) [compound 450] . Value?
Completion: “+++” (>50 = +++)

Prompt: Endpoint output: Peptide exchange (MHC class I binding score, peptide exchange yield) of 446 (QLIPALAKV; listed as Homo sapiens) [compound 446] . Value?
Completion: “+++” (>50 = +++)

***
Prompt: Endpoint output: Peptide exchange (MHC class I binding score, peptide exchange yield) of 302 (ALLQEGEVYSA; listed as Homo sapiens) [compound 302] . Value?
Completion: “+++” (>50 = +++)

Prompt: Endpoint output: Peptide exchange (MHC class I binding score, peptide exchange yield) of 505 (SLAPGDVVRQV; listed as Homo sapiens) [compound 505] . Value?
Completion: “++” (>20% = ++)

Prompt: Endpoint output: Peptide exchange (MHC class I binding score, peptide exchange yield) of 509 (FLFDTKPLIV; listed as Homo sapiens) [compound 509] . Value?
Completion: “+++” (>50 = +++)

Prompt: Endpoint output: Peptide exchange (MHC class I binding score, peptide exchange yield) of 322 (TLMTSLPAL; listed as Homo sapiens) [compound 322] . Value?
Completion: “+++” (>50 = +++)

Prompt: Endpoint output: Peptide exchange (MHC class I binding score, peptide exchange yield) of 21 (VLDELDMEL; listed as Homo sapiens) [compound 21] . Value?
Completion: “++” (>20% = ++)
